system: Serine/threonine-protein kinase B-raf (Homo sapiens), P15056 [V600E]; conditions: at 0.1 µM;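 note: mean inhibition of the BRAF V599E mutant, from GSK PKIS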
Sequence (P15056 whole entry V600E): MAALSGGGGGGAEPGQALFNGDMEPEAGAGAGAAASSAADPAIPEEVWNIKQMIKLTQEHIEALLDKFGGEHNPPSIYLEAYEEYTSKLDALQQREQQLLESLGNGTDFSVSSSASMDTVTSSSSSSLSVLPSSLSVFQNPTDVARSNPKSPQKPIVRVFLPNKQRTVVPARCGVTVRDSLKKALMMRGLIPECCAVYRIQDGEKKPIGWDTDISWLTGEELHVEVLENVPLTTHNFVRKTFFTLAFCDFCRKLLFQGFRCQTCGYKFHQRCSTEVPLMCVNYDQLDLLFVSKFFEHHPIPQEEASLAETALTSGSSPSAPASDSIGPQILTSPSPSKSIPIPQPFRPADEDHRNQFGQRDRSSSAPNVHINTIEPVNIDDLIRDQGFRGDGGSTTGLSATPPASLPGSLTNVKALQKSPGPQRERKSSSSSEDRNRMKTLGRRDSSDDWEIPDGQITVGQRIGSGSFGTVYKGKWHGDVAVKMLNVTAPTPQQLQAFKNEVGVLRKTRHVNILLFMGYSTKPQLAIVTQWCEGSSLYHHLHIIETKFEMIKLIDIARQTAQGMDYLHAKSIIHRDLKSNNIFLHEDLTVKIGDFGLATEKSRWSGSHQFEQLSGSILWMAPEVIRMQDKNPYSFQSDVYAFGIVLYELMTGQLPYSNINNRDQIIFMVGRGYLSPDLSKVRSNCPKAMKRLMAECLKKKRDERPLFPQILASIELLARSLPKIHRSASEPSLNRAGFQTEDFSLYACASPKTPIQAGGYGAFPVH
Description: GSK_PKIS: BRAF (V599E mutant) mean inhibition at 0.1 uM [Nanosyn]
readout_type: inhibition (%)
Write the number in % without appending the unit.

These recorded examples may help you get a feel for the data.
COc1cccc(-n2ncc3c(N/N=C/c4ccncc4)ncnc32)c1    11
COc1cc2c(cc1Nc1nc(Nc3ccsc3C(N)=O)c3cc[nH]c3n1)N(C(=O)CN(C)C)CCC2    0.32
Fc1ccc(-c2ncn(C3CCNCC3)c2-c2ccnc(Oc3ccccc3)n2)cc1    2.57
NS(=O)(=O)c1ccc(N/C=C2\C(=O)Nc3ccc4ncsc4c32)cc1    9.06

query: I would be grateful if you could share the reported inhibition for `Cc1cc(-c2ccco2)cc(C)c1/C=C/c1cncc(-c2nn[nH]n2)c1` .
result: 1.63

// data source = ChEMBL document CHEMBL1961873
